Value source: paper PMC6767236

Test: in vivo
Conditions: male, C57Bl/6, mouse, in vivo, iv, 2 mg/kg
property label: Vd (L/kg)
Give bare numbers, in L/kg.

[Q] Return reported Vd; argument: CCCCCCC(C)(C)c1cc(OC)c([C@H]2C=C(CO)[C@H]3C[C@@H]2C3(C)C)c(OC)c1 [HU308, reference compound]
[A] 2.9

* * *

Assignment: determine reported solubility for the given compounds.
Assay: Saturation solubility in selected solvents/vehicles
Type: physicochemical
Conditions: aqueous with cosolvent or surfactant or cyclodextrin, thermodynamic from solid, in demin. water; n = 1; HU308 crystalline material; read-out: Solubility in PEG400 30%
Answers are plain numbers, in µg/mL.

line_notation=CNC(=O)[C@@H](NC(=O)c1cc(OCC2(C)COC2)c(C2CC2)cn1)C(C)(C)C property_label=solubility recorded_result=5900

[Q] Return reported solubility; argument: CC(C)(C)c1nc(N2CC[C@H](O)C2)c2nnn(Cc3nnnn3C3CC3)c2n1
[A] 200
